Read-out: solute carrier (SLCO1B1), SLCO1B1 (gene 10599)
Experiment: LTEA_HepaRG_SLCO1B1: Life Technologies and Expression Analysis (LTEA) Assay for solute carrier (SLCO1B1) using HepaRG (AID 2283530)
Details: mRNA level, 48 h; actives raise or lower the signal
Calls of active or inactive are those of the source. How the source made its calls: active means hit-call score of the fitted dose curve at least 0.9, where 1 is the maximum; inactive means score below 0.9.
A correct response names exactly one class from y = active, n = inactive

Consider the worked cases shown below.
CC1COC(Cn2cncn2)(c2ccc(Oc3ccc(Cl)cc3)cc2Cl)O1 (stereo not given)
y
CCCCOC(=O)c1ccccc1C(=O)OCCCC
n
CCOP(=S)(OCC)SCn1c(=O)oc2cc(Cl)ccc21
n

Prompt: How was `CS/C(C)=N/OC(=O)N(C)SN(C)C(=O)O/N=C(\C)SC` classified in this test?
Completion: n

Prompt: Check the results log: what was the call for `Cc1ccc(-c2c(Cl)nc(C#N)n2S(=O)(=O)N(C)C)cc1` ?
Completion: y

Prompt: Please share the test call associated with `COC(=O)N(OC)c1ccccc1COc1ccn(-c2ccc(Cl)cc2)n1` .
Completion: y

Prompt: Could you kindly confirm the outcome this assay logged for C=CC1(C)OC(=O)N(c2cc(Cl)cc(Cl)c2)C1=O (stereo not given) ?
Completion: n

Prompt: Hi, do you know how CCCCC(CC)COC(=O)c1ccccc1C(=O)OCC(CC)CCCC (stereo not given) came out in this test?
Completion: n

Prompt: Test call, this molecule: CC(Oc1ccc(Cl)cc1Cl)C(=O)O (stereo not given)
Completion: n

Prompt: How was `COP(=S)(OC)Oc1nc(Cl)c(Cl)cc1Cl` classified in this test?
Completion: n

Prompt: Which outcome was entered for the molecule `CC(C)(C)c1ccc(CSc2cnn(C(C)(C)C)c(=O)c2Cl)cc1` in this test?
Completion: y

* * *

Read-out: Keratin 19 (KRT19), KRT19 (gene 3880)
Test: LTEA_HepaRG_KRT19: Life Technologies and Expression Analysis (LTEA) Assay for Keratin 19 (KRT19) using HepaRG (AID 2283512)
Settings: mRNA level, 48 h; actives raise or lower the signal
Activity calls are given as the source filed them. Rule for the calls: active = hit-call score of the fitted dose curve at least 0.9, where 1 is the maximum; inactive = score below 0.9.
Classes to choose from: active, inactive

COc1nc(NC(C)C)nc(NC(C)C)n1
active
CCOC(=O)CC(SP(=S)(OC)OC)C(=O)OCC (configuration not stated)
inactive
CCCCNC(=O)n1c(NC(=O)OC)nc2ccccc21
inactive
COC(=O)c1ccccc1C(=O)OC
inactive
CCON=C(CC)C1=C(O)CC(c2c(C)cc(C)cc2C)CC1=O (configuration not stated)
inactive

Prompt: Which outcome did this test record for the compound N#CC(CCc1ccc(Cl)cc1)(Cn1cncn1)c1ccccc1 (configuration not stated) ?
Completion: inactive

Prompt: How did this test come out for `CN(C)C(=S)SSC(=S)N(C)C` ?
Completion: inactive

Prompt: Please state the recorded outcome for this compound: OC(c1ccc(Cl)cc1)(c1cncnc1)c1ccccc1Cl (configuration not stated)
Completion: inactive

Prompt: Each compound tested received a call. Report the one for CCCCC(CC)COC(=O)c1ccccc1C(=O)OCC(CC)CCCC (configuration not stated) .
Completion: inactive

Prompt: So what was the verdict on `C=CCC1=C(C)[C@@H](OC(=O)[C@@H]2[C@@H](C=C(C)C)C2(C)C)CC1=O` in this test?
Completion: inactive

Prompt: What classification did `Cc1ccc(-c2c(Cl)nc(C#N)n2S(=O)(=O)N(C)C)cc1` end up with in this test?
Completion: active

Prompt: What was the test verdict on C=CC1(C)OC(=O)N(c2cc(Cl)cc(Cl)c2)C1=O (configuration not stated) ?
Completion: inactive

* * *

Experiment: ATG_Sox_CIS: Attagene CIS-FACTORIAL HepG2 Assay for human SRY-box transcription factor (SOX) (AID 2282960)
Conditions: HepG2 Attagene cis-factorial SOX reporter, mRNA; actives raise or lower the signal
The source made the active and inactive calls. Rule for the calls: active = hit-call score of the fitted dose curve at least 0.9, where 1 is the maximum; inactive = score below 0.9.
Your answer must be one of the following: True for active, False for inactive

Prompt: So what was the verdict on CC(C)C1(C)N=C(c2nc3ccccc3cc2C(=O)O)NC1=O (centres undefined) in this test?
Completion: False

Prompt: So what was the verdict on `CCCCNC(=O)n1c(NC(=O)OC)nc2ccccc21` in this test?
Completion: False

Prompt: Which outcome did this test record for the molecule Cc1c(F)c(F)c(COC(=O)C2C(/C=C(\Cl)C(F)(F)F)C2(C)C)c(F)c1F (centres undefined) ?
Completion: False

Prompt: Record lookup: outcome of this test for `COc1cnc(OC)n2nc(NS(=O)(=O)c3c(OCC(F)F)cccc3C(F)(F)F)nc12` ?
Completion: False

Prompt: Field: outcome | Entry: `CC(C)Oc1cc(-n2nc(C(C)(C)C)oc2=O)c(Cl)cc1Cl`
Completion: False

* * *

Read-out: Cytochrome P450 7A1 (Homo sapiens)
Assay: LTEA_HepaRG_CYP7A1: Life Technologies and Expression Analysis (LTEA) Assay for Cytochrome P450 7A1 (CYP7A1) using HepaRG (AID 2283496)
Conditions: mRNA level, 48 h; actives raise or lower the signal
Calls of active or inactive are those of the source. The calls were made as follows: active = hit-call score of the fitted dose curve at least 0.9, where 1 is the maximum; inactive = score below 0.9.
Tick one outcome: active, inactive

See these solved cases before continuing.
CC1COC(Cn2cncn2)(c2ccc(Oc3ccc(Cl)cc3)cc2Cl)O1 (configuration not stated)
active
O=C(O)c1nc(Cl)ccc1Cl
inactive
Cc1cc(Cl)ccc1OCC(=O)O
active
COP(N)(=O)SC (configuration not stated)
inactive
Cc1c(F)c(F)c(COC(=O)C2C(/C=C(\Cl)C(F)(F)F)C2(C)C)c(F)c1F (configuration not stated)
inactive
C#CCOS(=O)OC1CCCCC1Oc1ccc(C(C)(C)C)cc1 (configuration not stated)
active
Fc1ccc(Oc2ccnc3cc(Cl)cc(Cl)c23)cc1
active
N#Cc1nn(-c2c(Cl)cc(C(F)(F)F)cc2Cl)c(N)c1S(=O)C(F)(F)F (configuration not stated)
active

Prompt: Field: outcome | Entry: `CCCCNC(=O)n1c(NC(=O)OC)nc2ccccc21`
Completion: inactive

Prompt: What outcome does the record of this test show for `COC(=O)c1ccccc1C(=O)OC` ?
Completion: inactive

Prompt: In this assay, the call recorded for `CON(C)C(=O)Nc1ccc(Cl)c(Cl)c1` was what?
Completion: active

Prompt: Which outcome was entered for the molecule N#CC(CCc1ccc(Cl)cc1)(Cn1cncn1)c1ccccc1 (configuration not stated) in this test?
Completion: active

* * *

Assay: APR_HepG2_StressKinase_24hr: Apredica 24-hour HepG2 Assay for Stress Kinase (AID 2282922)
Details: HepG2 stress kinase (phospho-c-Jun) imaging, actives raise or lower the signal
Active and inactive are the calls of the source. The calls were made as follows: active = hit-call score of the fitted dose curve at least 0.9, where 1 is the maximum; inactive = score below 0.9.
OUTCOME_MEASURE: outcome

CNC(=O)ON=CC(C)(C)SC
inactive
COc1nc(C)nc(NC(=O)NS(=O)(=O)c2ccccc2CCC(F)(F)F)n1
inactive
N#CC(CCc1ccc(Cl)cc1)(Cn1cncn1)c1ccccc1 (stereo not drawn)
inactive

* * *

Read-out: sulfotransferase (SULT2A), SULT2A1 (gene 6822)
Experiment: CLD_SULT2A_6hr: CellzDirect (CLD) Gene Expression Assay for sulfotransferase (SULT2A) at 6 hours (AID 2283669);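 further: hits raise transcript level above the DMSO vehicle baseline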
Procedure: CLD_6hr is a cell-based, multiplexed-readout assay that uses hepatocyte, a human liver primary cell, with measurements taken at 6 hours after chemical dosing in a 96-well plate.CLD_SULT2A_6hr is one of 16 assay component(s) measured or calculated from the CLD_6hr assay. […] Furthermore, this assay endpoint can be referred to as a primary readout. […]
Inconclusive results are not listed. Calls of active or inactive are those of the source. The calls were made as follows: active = hit-call score of the fitted dose curve at least 0.9, where 1 is the maximum; inconclusive = response in the unintended direction; inactive = score below 0.9.
Choose one outcome from this list and give only that: active, inactive

For orientation, consider the following solved cases.
CCCCOC(=O)c1ccccc1C(=O)OCCCC
inactive
COP(=S)(OC)Oc1nc(Cl)c(Cl)cc1Cl
inactive
CC1COC(Cn2cncn2)(c2ccc(Oc3ccc(Cl)cc3)cc2Cl)O1 (stereo unspecified)
active

Prompt: Tell me the assay call for `COc1ccc(C(c2ccc(OC)cc2)C(Cl)(Cl)Cl)cc1` please.
Completion: inactive

Prompt: So what was the verdict on CC(C)C1(C)N=C(c2nc3ccccc3cc2C(=O)O)NC1=O (stereo unspecified) in this test?
Completion: inactive

Prompt: # outcome recorded in this test, key = CCCCC(CC)COC(=O)c1ccccc1C(=O)OCC(CC)CCCC (stereo unspecified)
Completion: inactive

* * *

Biological target: human Thyroid hormone Receptor alpha (TRa), THRA (gene 7067) (UniProt P10827)
Sequence (P10827 whole entry, looked up): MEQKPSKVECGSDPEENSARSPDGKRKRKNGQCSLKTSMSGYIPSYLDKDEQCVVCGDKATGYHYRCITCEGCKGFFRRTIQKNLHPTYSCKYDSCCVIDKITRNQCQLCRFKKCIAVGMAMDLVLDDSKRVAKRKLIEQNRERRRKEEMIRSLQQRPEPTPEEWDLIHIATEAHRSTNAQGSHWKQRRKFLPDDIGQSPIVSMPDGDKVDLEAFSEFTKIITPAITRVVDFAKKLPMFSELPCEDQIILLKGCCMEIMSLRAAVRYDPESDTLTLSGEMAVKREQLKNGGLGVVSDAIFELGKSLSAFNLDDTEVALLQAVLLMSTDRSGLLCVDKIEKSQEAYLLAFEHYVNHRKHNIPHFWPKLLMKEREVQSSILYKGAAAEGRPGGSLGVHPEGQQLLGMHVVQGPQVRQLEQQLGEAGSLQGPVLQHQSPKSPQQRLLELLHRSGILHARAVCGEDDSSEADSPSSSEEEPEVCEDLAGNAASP
Test: ATG_hTRa_XSP1: Attagene TRANS-FACTORIAL Multi-Species (XSP1) HepG2 Assay for human Thyroid hormone Receptor alpha (TRa) (AID 2283805)
Records with an inconclusive call do not appear. Activity calls are given as the source filed them. The calls were made as follows: active = hit-call score of the fitted dose curve at least 0.9, where 1 is the maximum; inconclusive = response in the unintended direction; inactive = score below 0.9.
// allowed return values: active, inactive

CON(C)C(=O)Nc1ccc(Cl)c(Cl)c1
inactive

Prompt: Any idea what this test logged for C=CC1(C)OC(=O)N(c2cc(Cl)cc(Cl)c2)C1=O (stereo unspecified) ?
Completion: inactive

Prompt: Could you please tell me the result logged for `CO/C=C(/C(=O)OC)c1ccccc1Oc1cc(Oc2ccccc2C#N)ncn1` in this assay?
Completion: inactive

Prompt: Hi, do you know how CCCCC(CC)COC(=O)c1ccccc1C(=O)OCC(CC)CCCC (stereo unspecified) came out in this test?
Completion: active

Prompt: Record request — test call for `COC(=O)N(OC)c1ccccc1COc1ccn(-c2ccc(Cl)cc2)n1`
Completion: active

Prompt: Call for entry `COc1ccc(C(c2ccc(OC)cc2)C(Cl)(Cl)Cl)cc1` :
Completion: inactive
